Reported pIC50 values for the following molecules.
# EXPERIMENTAL_SYSTEM: Recombinant human PI3Kγ (full length human PI3K p110γ) (Homo sapiens)
# Construct: full length human PI3K p110γ fused with a His6-tag at the C-terminus; His6 (C); purchased ALEXIS BIOCHEMICALS #201-055-C010; host or cells: S. frugiperda 9 insect cells
# Sequence (P48736 whole entry, the tested form may be a part): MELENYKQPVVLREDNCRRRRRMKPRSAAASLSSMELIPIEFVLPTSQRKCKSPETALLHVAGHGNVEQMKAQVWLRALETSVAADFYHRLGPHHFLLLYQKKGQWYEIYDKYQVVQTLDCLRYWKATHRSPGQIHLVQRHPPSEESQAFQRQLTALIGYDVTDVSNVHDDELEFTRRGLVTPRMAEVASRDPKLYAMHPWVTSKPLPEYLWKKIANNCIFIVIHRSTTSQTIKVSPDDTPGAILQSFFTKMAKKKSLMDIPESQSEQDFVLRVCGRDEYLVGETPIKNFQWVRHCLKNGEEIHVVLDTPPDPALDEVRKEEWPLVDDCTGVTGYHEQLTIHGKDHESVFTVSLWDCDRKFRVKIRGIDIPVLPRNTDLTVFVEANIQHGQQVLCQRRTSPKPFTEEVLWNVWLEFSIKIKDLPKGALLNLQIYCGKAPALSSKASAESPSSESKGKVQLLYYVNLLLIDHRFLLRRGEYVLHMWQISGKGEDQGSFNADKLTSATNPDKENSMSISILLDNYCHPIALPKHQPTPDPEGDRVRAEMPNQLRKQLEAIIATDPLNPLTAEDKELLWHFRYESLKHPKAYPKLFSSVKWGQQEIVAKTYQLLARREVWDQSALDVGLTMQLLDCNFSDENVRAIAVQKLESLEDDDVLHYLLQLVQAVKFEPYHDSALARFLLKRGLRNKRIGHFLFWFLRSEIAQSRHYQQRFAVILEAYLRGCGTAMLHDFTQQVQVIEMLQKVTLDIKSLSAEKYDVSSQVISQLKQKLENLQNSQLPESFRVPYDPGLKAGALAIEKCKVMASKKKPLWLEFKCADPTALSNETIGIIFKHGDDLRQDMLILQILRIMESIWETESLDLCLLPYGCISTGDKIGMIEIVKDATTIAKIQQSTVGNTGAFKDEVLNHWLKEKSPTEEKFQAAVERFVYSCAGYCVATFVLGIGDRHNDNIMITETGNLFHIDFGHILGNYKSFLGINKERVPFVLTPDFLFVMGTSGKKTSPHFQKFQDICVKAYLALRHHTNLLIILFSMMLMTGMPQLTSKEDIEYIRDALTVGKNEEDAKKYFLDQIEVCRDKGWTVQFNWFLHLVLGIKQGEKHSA
# TEST_DETAILS: Kinase assay of PI3Kγ (solid-phase lipid kinase assay)
# Assay type: biochemical
# DETAILS: Table 1, isozyme not given; read-out: in vitro
pIC50: −log10 of the molar value.
PROPERTY_NAME: pIC50

CC(=O)Nc1ccc(/C(O)=C/C2=Nc3c(ccc(C)c3OCCN3CCOCC3)C3=NCCN23)cn1.Cl [Example 1-41] : > 7.00
O/C(=C\C1=Nc2ccccc2C2=NCCN12)c1csc2ccccc12 [Example 1-180] : < 5.70
CC(=O)Nc1ccc(/C(O)=C/C2=Nc3c(CN4CCOCC4)cccc3C3=NCCN23)cn1 [Example 1-208] : 6.30 to 7.00
Cc1nc(NC(=O)OC(C)(C)C)sc1/C(O)=C/C1=Nc2ccccc2C2=NCCN12 [Example 1-179] : < 5.70
O/C(=C\C1=Nc2cc(CN3CCOCC3)ccc2C2=NCCN12)c1ccc2[nH]cnc2c1 [Example 1-115] : 6.30 to 7.00
COc1cc2c(c(OC)c1C)N=C(/C=C(\O)c1ccc3[nH]cnc3c1)N1CCN=C21 [Example 1-66] : 6.30 to 7.00
CCC/C(O)=C/C1=Nc2ccccc2C2=NCCN12 [Example 1-182] : < 5.70
N#Cc1ccc(/C(O)=C/C2=Nc3ccccc3C3=NCCN23)s1 [Example 1-177] : 5.70 to 6.30
O/C(=C\C1=Nc2ccccc2C2=NCCN12)c1cccnc1 [Example 1-134] : 6.30 to 7.00
O/C(=C\C1=Nc2cc(C(F)(F)F)ccc2C2=NCCN12)c1cccnc1 [Example 1-188] : 5.70 to 6.30
